Listing: log10 IC50 of selected compounds
Tested on: SK-BR-3
Experiment: Antiproliferative activity against human SK-BR-3 cells after 72 hrs by SRB assay
Type: functional, cell-based
Conditions: SK-BR-3, 72 h
property_label: log10 IC50 (log10 of the value in µM)

| line_notation | log10 IC50 |
| --- | --- |
| C#CCNC(=O)[C@H](CC)[C@H]1CC[C@H](C)[C@H]([C@@H](C)[C@H](O)[C@H](C)C(=O)[C@H](CC)[C@H]2O[C@]3(C=C[C@@H](O)[C@]4(CC[C@@](C)([C@H]5CC[C@](O)(CC)[C@H](C)O5)O4)O3)[C@H](C)C[C@@H]2C)O1 | 1.49 |
| COc1cccc2c1C(=O)c1c(O)c3c(c(O)c1C2=O)C[C@@](O)(C(=O)CO)C[C@@H]3O[C@H]1C[C@H](N)[C@H](O)[C@H](C)O1 | -0.43 |
| C#CCOC(=O)[C@H](CC)[C@H]1CC[C@H](C)[C@H]([C@@H](C)[C@H](O)[C@H](C)C(=O)[C@H](CC)[C@H]2O[C@]3(C=C[C@@H](OC(=O)NCC)[C@]4(CC[C@@](C)([C@H]5CC[C@](O)(CC)[C@H](C)O5)O4)O3)[C@H](C)C[C@@H]2C)O1 | 1.40 |
| C#CCOC(=O)[C@H](CC)[C@H]1CC[C@H](C)[C@H]([C@@H](C)[C@H](O)[C@H](C)C(=O)[C@H](CC)[C@H]2O[C@]3(C=C[C@@H](O)[C@]4(CC[C@@](C)([C@H]5CC[C@](O)(CC)[C@H](C)O5)O4)O3)[C@H](C)C[C@@H]2C)O1 | 0.93 |
| CC[C@@H](C(=O)[C@@H](C)[C@@H](O)[C@H](C)[C@@H]1O[C@@H]([C@@H](CC)C(=O)OCC(F)(F)F)CC[C@@H]1C)[C@H]1O[C@]2(C=C[C@@H](O)[C@]3(CC[C@@](C)([C@H]4CC[C@](O)(CC)[C@H](C)O4)O3)O2)[C@H](C)C[C@@H]1C | 1.23 |
| CC[C@@H](C(=O)[C@@H](C)[C@@H](O)[C@H](C)[C@@H]1O[C@@H]([C@@H](CC)C(=O)NCCc2ccc(F)cc2)CC[C@@H]1C)[C@H]1O[C@]2(C=C[C@@H](O)[C@]3(CC[C@@](C)([C@H]4CC[C@](O)(CC)[C@H](C)O4)O3)O2)[C@H](C)C[C@@H]1C | 0.75 |
| C#CCNC(=O)[C@H](CC)[C@H]1CC[C@H](C)[C@H]([C@@H](C)[C@H](O)[C@H](C)C(=O)[C@H](CC)[C@H]2O[C@]3(C=C[C@@H](OC(=O)NCC)[C@]4(CC[C@@](C)([C@H]5CC[C@](O)(CC)[C@H](C)O5)O4)O3)[C@H](C)C[C@@H]2C)O1 | 0.89 |
| C#CCNC(=O)[C@H](CC)[C@H]1CC[C@H](C)[C@H]([C@@H](C)[C@H](O)[C@H](C)C(=O)[C@H](CC)[C@H]2O[C@]3(C=C[C@@H](OC(=O)OCC)[C@]4(CC[C@@](C)([C@H]5CC[C@](O)(CC)[C@H](C)O5)O4)O3)[C@H](C)C[C@@H]2C)O1 | 1.20 |
| CCNC(=O)O[C@@H]1C=C[C@]2(O[C@H]([C@@H](CC)C(=O)[C@@H](C)[C@@H](O)[C@H](C)[C@@H]3O[C@@H]([C@@H](CC)C(=O)NCCc4ccc(F)cc4)CC[C@@H]3C)[C@@H](C)C[C@H]2C)O[C@@]12CC[C@@](C)([C@H]1CC[C@](O)(CC)[C@H](C)O1)O2 | 0.63 |
| CC[C@@H](C(=O)[C@@H](C)[C@@H](O)[C@H](C)[C@@H]1O[C@@H]([C@@H](CC)C(=O)NCCc2ccc(F)cc2)CC[C@@H]1C)[C@H]1O[C@]2(C=C[C@@H](OC(C)=O)[C@]3(CC[C@@](C)([C@H]4CC[C@](O)(CC)[C@H](C)O4)O3)O2)[C@H](C)C[C@@H]1C | 0.58 |
| CCNC(=O)O[C@@H]1C=C[C@]2(O[C@H]([C@@H](CC)C(=O)[C@@H](C)[C@@H](O)[C@H](C)[C@@H]3O[C@@H]([C@@H](CC)C(=O)OCC(F)(F)F)CC[C@@H]3C)[C@@H](C)C[C@H]2C)O[C@@]12CC[C@@](C)([C@H]1CC[C@](O)(CC)[C@H](C)O1)O2 | 1.81 |
| CC[C@@H](C(=O)[C@@H](C)[C@@H](O)[C@H](C)[C@@H]1O[C@@H]([C@@H](CC)C(=O)O)CC[C@@H]1C)[C@H]1O[C@]2(C=C[C@@H](O)[C@]3(CC[C@@](C)([C@H]4CC[C@](O)(CC)[C@H](C)O4)O3)O2)[C@H](C)C[C@@H]1C | -0.05 |
| C#CCNC(=O)[C@H](CC)[C@H]1CC[C@H](C)[C@H]([C@@H](C)[C@H](O)[C@H](C)C(=O)[C@H](CC)[C@H]2O[C@]3(C=C[C@@H](OC(C)=O)[C@]4(CC[C@@](C)([C@H]5CC[C@](O)(CC)[C@H](C)O5)O4)O3)[C@H](C)C[C@@H]2C)O1 | 1.08 |
| CCOC(=O)O[C@@H]1C=C[C@]2(O[C@H]([C@@H](CC)C(=O)[C@@H](C)[C@@H](O)[C@H](C)[C@@H]3O[C@@H]([C@@H](CC)C(=O)NCCc4ccc(F)cc4)CC[C@@H]3C)[C@@H](C)C[C@H]2C)O[C@@]12CC[C@@](C)([C@H]1CC[C@](O)(CC)[C@H](C)O1)O2 | 1.00 |

----------
System: MCF-10A
Assay: Antiproliferative activity against human MCF10A cells after 72 hrs by SRB assay
Type: cell-based
List of IC50 values.

| molecule | system_under_test | measure_unit | IC50 |
| --- | --- | --- | --- |
| COc1cccc2c1C(=O)c1c(O)c3c(c(O)c1C2=O)C[C@@](O)(C(=O)CO)C[C@@H]3O[C@H]1C[C@H](N)[C@H](O)[C@H](C)O1 [DOXORUBICIN] | MCF-10A | µM | 0.58 |
| CCNC(=O)O[C@@H]1C=C[C@]2(O[C@H]([C@@H](CC)C(=O)[C@@H](C)[C@@H](O)[C@H](C)[C@@H]3O[C@@H]([C@@H](CC)C(=O)OCC(F)(F)F)CC[C@@H]3C)[C@@H](C)C[C@H]2C)O[C@@]12CC[C@@](C)([C@H]1CC[C@](O)(CC)[C@H](C)O1)O2 | MCF-10A | µM | 60 |

----------
Assay: Selectivity index, ratio of IC50 for human MCF10A cells to IC50 for human LoVo cells
Format: toxicity
Details: MCF10A cells versus LoVo cells, read-out: Ratio IC50
property_label: selectivity ratio

| line_notation | property_label | experimental_value |
| --- | --- | --- |
| C#CCNC(=O)[C@H](CC)[C@H]1CC[C@H](C)[C@H]([C@@H](C)[C@H](O)[C@H](C)C(=O)[C@H](CC)[C@H]2O[C@]3(C=C[C@@H](OC(=O)NCC)[C@]4(CC[C@@](C)([C@H]5CC[C@](O)(CC)[C@H](C)O5)O4)O3)[C@H](C)C[C@@H]2C)O1 | selectivity ratio | 20 |
| CC[C@@H](C(=O)[C@@H](C)[C@@H](O)[C@H](C)[C@@H]1O[C@@H]([C@@H](CC)C(=O)O)CC[C@@H]1C)[C@H]1O[C@]2(C=C[C@@H](O)[C@]3(CC[C@@](C)([C@H]4CC[C@](O)(CC)[C@H](C)O4)O3)O2)[C@H](C)C[C@@H]1C | selectivity ratio | 105 |
| CCNC(=O)O[C@@H]1C=C[C@]2(O[C@H]([C@@H](CC)C(=O)[C@@H](C)[C@@H](O)[C@H](C)[C@@H]3O[C@@H]([C@@H](CC)C(=O)NCCc4ccc(F)cc4)CC[C@@H]3C)[C@@H](C)C[C@H]2C)O[C@@]12CC[C@@](C)([C@H]1CC[C@](O)(CC)[C@H](C)O1)O2 | selectivity ratio | 17 |
| C#CCOC(=O)[C@H](CC)[C@H]1CC[C@H](C)[C@H]([C@@H](C)[C@H](O)[C@H](C)C(=O)[C@H](CC)[C@H]2O[C@]3(C=C[C@@H](O)[C@]4(CC[C@@](C)([C@H]5CC[C@](O)(CC)[C@H](C)O5)O4)O3)[C@H](C)C[C@@H]2C)O1 | selectivity ratio | 14 |

----------
Experiment: Selectivity index, ratio of IC50 for human MCF10A cells to IC50 for human ALL5 cells
Format: toxicity
Settings: MCF10A cells versus ALL5 cells, read-out: Ratio IC50
Criterion: selectivity ratio meeting or surpassing 20. Met: 1. Not met: 0.

| line_notation | assigned_class |
| --- | --- |
| CCNC(=O)O[C@@H]1C=C[C@]2(O[C@H]([C@@H](CC)C(=O)[C@@H](C)[C@@H](O)[C@H](C)[C@@H]3O[C@@H]([C@@H](CC)C(=O)OCC(F)(F)F)CC[C@@H]3C)[C@@H](C)C[C@H]2C)O[C@@]12CC[C@@](C)([C@H]1CC[C@](O)(CC)[C@H](C)O1)O2 | 1 |
| C#CCNC(=O)[C@H](CC)[C@H]1CC[C@H](C)[C@H]([C@@H](C)[C@H](O)[C@H](C)C(=O)[C@H](CC)[C@H]2O[C@]3(C=C[C@@H](OC(C)=O)[C@]4(CC[C@@](C)([C@H]5CC[C@](O)(CC)[C@H](C)O5)O4)O3)[C@H](C)C[C@@H]2C)O1 | 1 |
| C#CCOC(=O)[C@H](CC)[C@H]1CC[C@H](C)[C@H]([C@@H](C)[C@H](O)[C@H](C)C(=O)[C@H](CC)[C@H]2O[C@]3(C=C[C@@H](O)[C@]4(CC[C@@](C)([C@H]5CC[C@](O)(CC)[C@H](C)O5)O4)O3)[C@H](C)C[C@@H]2C)O1 | 0 |
| CC[C@@H](C(=O)[C@@H](C)[C@@H](O)[C@H](C)[C@@H]1O[C@@H]([C@@H](CC)C(=O)O)CC[C@@H]1C)[C@H]1O[C@]2(C=C[C@@H](O)[C@]3(CC[C@@](C)([C@H]4CC[C@](O)(CC)[C@H](C)O4)O3)O2)[C@H](C)C[C@@H]1C | 0 |
| CC[C@@H](C(=O)[C@@H](C)[C@@H](O)[C@H](C)[C@@H]1O[C@@H]([C@@H](CC)C(=O)OCC(F)(F)F)CC[C@@H]1C)[C@H]1O[C@]2(C=C[C@@H](O)[C@]3(CC[C@@](C)([C@H]4CC[C@](O)(CC)[C@H](C)O4)O3)O2)[C@H](C)C[C@@H]1C | 1 |
| CC[C@@H](C(=O)[C@@H](C)[C@@H](O)[C@H](C)[C@@H]1O[C@@H]([C@@H](CC)C(=O)NCCc2ccc(F)cc2)CC[C@@H]1C)[C@H]1O[C@]2(C=C[C@@H](O)[C@]3(CC[C@@](C)([C@H]4CC[C@](O)(CC)[C@H](C)O4)O3)O2)[C@H](C)C[C@@H]1C | 1 |
| CC[C@@H](C(=O)[C@@H](C)[C@@H](O)[C@H](C)[C@@H]1O[C@@H]([C@@H](CC)C(=O)NCCc2ccc(F)cc2)CC[C@@H]1C)[C@H]1O[C@]2(C=C[C@@H](OC(C)=O)[C@]3(CC[C@@](C)([C@H]4CC[C@](O)(CC)[C@H](C)O4)O3)O2)[C@H](C)C[C@@H]1C | 1 |
| C#CCNC(=O)[C@H](CC)[C@H]1CC[C@H](C)[C@H]([C@@H](C)[C@H](O)[C@H](C)C(=O)[C@H](CC)[C@H]2O[C@]3(C=C[C@@H](OC(=O)NCC)[C@]4(CC[C@@](C)([C@H]5CC[C@](O)(CC)[C@H](C)O5)O4)O3)[C@H](C)C[C@@H]2C)O1 | 1 |
